# Tested On: T1, CEACAM5 (CD66e) on tumour cells (human, UniProt P06731 35-685, glycosylated (natural, as on tumour cells))
# T1 construct: whole, on cells; One molecule for CEACAM5 on all three cell lines; the cell line is named under assay; also called natural CEACAM5 antigen; Lovo cells
# T1 sequence (looked up): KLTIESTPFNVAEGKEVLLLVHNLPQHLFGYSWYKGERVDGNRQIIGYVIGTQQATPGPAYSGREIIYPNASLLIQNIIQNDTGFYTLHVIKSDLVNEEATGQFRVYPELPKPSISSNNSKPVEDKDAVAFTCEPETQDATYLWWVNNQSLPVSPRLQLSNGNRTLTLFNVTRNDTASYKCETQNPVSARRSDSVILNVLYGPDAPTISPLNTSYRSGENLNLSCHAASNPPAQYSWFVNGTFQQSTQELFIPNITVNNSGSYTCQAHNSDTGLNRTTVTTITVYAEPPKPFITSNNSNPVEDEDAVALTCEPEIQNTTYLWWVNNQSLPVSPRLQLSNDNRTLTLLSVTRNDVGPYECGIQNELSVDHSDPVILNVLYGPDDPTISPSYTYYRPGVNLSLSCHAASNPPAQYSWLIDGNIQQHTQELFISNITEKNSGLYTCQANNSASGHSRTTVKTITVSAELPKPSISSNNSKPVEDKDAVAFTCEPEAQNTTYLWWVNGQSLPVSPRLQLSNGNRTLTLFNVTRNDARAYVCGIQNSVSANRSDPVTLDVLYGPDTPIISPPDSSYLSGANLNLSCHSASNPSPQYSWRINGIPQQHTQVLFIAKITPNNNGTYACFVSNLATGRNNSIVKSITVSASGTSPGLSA
# Test Summary: flow cytometry on KATO3 cells, anti-human IgG Fc-APC
# Method: KATO3 cells (high expression of CEACAM5) were cultured in RPMI1640 medium containing 10% FBS. […]
# note: boundary value 3 µg/mL maps to Not fulfilled; EC50 below it maps to Fulfilled

• Humanized antibody hAb-013 (antibody, V domains shown, also called hM19-11) VH: EVQLVESGGGLVQPGGSLRLSCAASGFTFTDYYMDWVRQAPGKALEWVGFTRNKVNGDTTEYAASVKGRFTISRDDSKNSLYLQMNSLKTEDTAVYYCARDKGIAYYFDYWGQGTLVTVSS VL: QIVLTQSPATLSASPGERATLSCRASSSVSYIHWYQQKPGQSPRPLIYGTSNLASGVPARFSGSGSGTDFTLTISSLEPEDAAVYYCQQWSSNLSTFGGGTKVEIK = Not fulfilled
• Humanized antibody hAb-006 (antibody, V domains shown, also called hM19-4) VH: EVQLVESGGGLVQPGGSLRLSCAASGFTFTDYYMNWVRQAPGKGLEWLGFIRNKVNGDTTEYSASVKGRFTISRDISKNSLYLQMNSLKTEDTAVYYCARDKGIAYYFDYWGQGTLVTVSS VL: DIVLSQSPGTLSLSPGERATLSCRASSSVSYIHWYQQKPGQAPRPWIHGTSNLASGIPDRFSGSGSGTDYTLTISRLEPEDFAVYYCQQWSSNLSTFGGGTKVEIK = Not fulfilled
• Humanized antibody hAb-005 (antibody, V domains shown, also called hM19-3) VH: EVQLVESGGGLVQPGGSLRLSCAASGFTFTDYTMSWVRQAPGKALEWVGFIRNKVNGDTTEYSDSVEGRFTISRDNSKNTLYLQMNSLRAEDTAVYYCARDKGIAYYFDYWGQGTLVTVSS VL: DIQLTQSPSSLSASVGDRVTITCRASSSVSYIHWYQQKPGKSPKPWIYGTSNLASGVPSRFSGSGSGTDYTLTISSLQPEDAATYYCQQWSSNLSTFGQGTKVEIK = Not fulfilled
• Humanized antibody hAb-016 (antibody, V domains shown, also called hM19-14) VH: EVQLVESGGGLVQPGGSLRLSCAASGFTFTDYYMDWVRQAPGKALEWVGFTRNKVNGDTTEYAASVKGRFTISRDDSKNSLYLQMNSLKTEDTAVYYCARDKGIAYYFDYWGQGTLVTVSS VL: EIVLTQSPGTLSASPGERATLSCRASSSVSYIHWYQQKPGQSPRPLIYGTSNLASGVPDRFSGSGSGTDFTLTISRLEPEDAAVYYCQQWSSNLSTFGGGTKVEIK = Not fulfilled
• Humanized antibody hAb-010 (antibody, V domains shown, also called hM19-8) VH: EVQLVESGGGLVQPGGSLRLSCAASGFTFTDYYMDWVRQAPGKALEWVGFIRNKVNGDTTEYAASVKGRFTISRDDSKNSLYLQMNSLKTEDTAVYYCARDKGIAYYFDYWGQGTLVTVSS VL: EIVLTQSPATLSASPGERATLSCRASSSVSYIHWYQQKPGQSPRPLIYGTSNRATGVPARFSGSGSGTDFTLTISSLEPEDAAVYYCQQWSSNLSTFGGGTKVEIK = Fulfilled
